assayTarget: Neuromedin-K receptor (Homo sapiens)
Sequence (P29371 whole entry): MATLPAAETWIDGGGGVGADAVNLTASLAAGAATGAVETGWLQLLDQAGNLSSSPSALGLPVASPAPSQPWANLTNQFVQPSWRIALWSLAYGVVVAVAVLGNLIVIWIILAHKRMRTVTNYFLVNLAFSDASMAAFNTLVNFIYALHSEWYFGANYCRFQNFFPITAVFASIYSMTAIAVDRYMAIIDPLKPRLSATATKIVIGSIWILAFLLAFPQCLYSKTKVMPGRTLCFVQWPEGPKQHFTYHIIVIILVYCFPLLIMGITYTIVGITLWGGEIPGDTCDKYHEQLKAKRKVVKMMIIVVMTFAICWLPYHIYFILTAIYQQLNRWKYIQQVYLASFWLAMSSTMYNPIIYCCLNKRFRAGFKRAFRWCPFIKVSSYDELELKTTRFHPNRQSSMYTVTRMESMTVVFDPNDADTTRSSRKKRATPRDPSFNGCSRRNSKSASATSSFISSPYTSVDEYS
testDetails: Agonist activity at human NK3R expressed in CHO cells assessed as induction of Ca2+ influx […]
Type: functional, cell-based
pEC50: −log10 of the molar value. Where a SMILES comes first, the peptide text is derived from it. [ ]: non-standard residue; d: D form. NMeF = CN[C@@H](Cc1ccccc1)C(=O)O
Each entry below carries its reported pEC50.
testReadout: pEC50

{"columns": ["molecule", "testReadout", "measurementQualifier", "observedResult"],
 "data": [
  ["CSCC[C@H](NC(=O)[C@H](CC(C)C)NC(=O)CNC(=O)[C@H](Cc1ccccc1)N(C)C(=O)[C@@H](N)Cc1ccccc1)C(=O)O (H-F[NMeF]GLM-OH)", "pEC50", "<", 4.00],
  ["CSCC[C@H](NC(=O)[C@H](CC(C)C)NC(=O)CNC(=O)[C@H](Cc1ccccc1)N(C)C(=O)[C@@H](N)Cc1ccccc1)C(N)=O (H-F[NMeF]GLM-NH2)", "pEC50", "=", 6.46],
  ["CSCC[C@H](NC(=O)[C@H](CC(C)C)NC(=O)CNC(=O)[C@H](Cc1ccccc1)N(C)C(=O)[C@H](Cc1ccccc1)NC(=O)[C@H](Cc1ccccc1)NC(=O)[C@@H](N)CC(=O)O)C(N)=O (H-DFF[NMeF]GLM-NH2)", "pEC50", "=", 7.04],
  ["CSCC[C@H](NC(=O)[C@H](CC(C)C)NC(=O)CNC(=O)[C@H](Cc1ccccc1)N(C)C(=O)[C@H](Cc1ccccc1)NC(=O)[C@@H](N)Cc1ccccc1)C(N)=O (H-FF[NMeF]GLM-NH2)", "pEC50", "=", 6.62],
  ["CSCC[C@H](NC(=O)[C@H](CC(C)C)NC(=O)CNC(=O)[C@H](Cc1ccccc1)N(C)C(=O)[C@H](Cc1ccccc1)NC(=O)[C@H](Cc1ccccc1)NC(=O)[C@H](CC(=O)O)NC(=O)[C@H](Cc1cnc[nH]1)NC(=O)[C@H](CCSC)NC(=O)[C@@H](N)CC(=O)O)C(N)=O (H-DMHDFF[NMeF]GLM-NH2)", "pEC50", "=", 7.19],
  ["CN(C(=O)[C@@H](N)Cc1ccccc1)[C@@H](Cc1ccccc1)C(=O)NCC(=O)O (H-Phe-[NMeF]-Gly-OH)", "pEC50", "<", 4.00],
  ["CSCC[C@H](NC(=O)[C@H](CC(C)C)NC(=O)CNC(=O)[C@H](Cc1ccccc1)N(C)C(=O)[C@H](Cc1ccccc1)NC(=O)[C@H](Cc1ccccc1)NC(=O)[C@H](CC(=O)O)NC(=O)[C@@H](N)Cc1cnc[nH]1)C(N)=O (H-HDFF[NMeF]GLM-NH2)", "pEC50", "=", 6.55],
  ["CSCC[C@H](NC(=O)[C@H](CC(C)C)NC(=O)CNC(=O)[C@H](Cc1ccccc1)N(C)C(=O)[C@H](Cc1ccccc1)NC(=O)[C@H](Cc1ccccc1)NC(=O)[C@H](CC(=O)O)NC(=O)[C@H](Cc1cnc[nH]1)NC(=O)[C@@H](N)CCSC)C(N)=O (H-MHDFF[NMeF]GLM-NH2)", "pEC50", "=", 6.48]
]}
